Provenance of the data: ChEMBL document CHEMBL4483862

System: Plasmodium berghei
Assay: Luciferase/luciferin-expressing antifolate-resistant parasites were used to infect a culture of HepG2 cells that were pre-incubated with compounds. Infected hepatocytes emit light due to the luciferase reaction. Assay results are presented as the percent inhibition of light emission compared to control. […]
Format: functional
Settings: sporozoite, PBLUC_HILL_SLOPE 1.88, PBLUC_R_SQUARED 0.642, read-out: LUCIFERASE INFECTION ASSAY - IC50
pIC50: −log10 of the molar value.
property measured: pIC50

cpd smiles | property measured | reported measurement
Cc1ccc(-c2cnc3ccc(NCc4cccs4)nn23)cc1 | pIC50 | 5.32

###

Test system: Plasmodium berghei
Test: Luciferase/luciferin-expressing antifolate-resistant parasites were used to infect a culture of HepG2 cells that were pre-incubated with compounds. Infected hepatocytes emit light due to the luciferase reaction. Assay results are presented as the percent inhibition of light emission compared to control. […]
Type: functional
Conditions: sporozoite, FFLUC_HILL_SLOPE 24.2, FFLUC_R_SQUARED 0.301, HEPG2TOX_HILL_SLOPE 1.67, HEPG2TOX_R_SQUARED 0.953, PBLUC_HILL_SLOPE 5.65, PBLUC_R_SQUARED 0.637, read-out: LUCIFERASE INFECTION ASSAY - IC50

compound | study system | units of measure | IC50
Oc1cccnc1NC(c1ccc(Br)cc1)c1ccc2cccnc2c1O (stereo unspecified) | Plasmodium berghei | µM | 5.24

###

Test system: Plasmodium berghei
Assay: Luciferase/luciferin-expressing antifolate-resistant parasites were used to infect a culture of HepG2 cells that were pre-incubated with compounds. Infected hepatocytes emit light due to the luciferase reaction. Assay results are presented as the percent inhibition of light emission compared to control. […]
Format: functional
Conditions: sporozoite, PBLUC_HILL_SLOPE 1.97, PBLUC_R_SQUARED 0.872, read-out: LUCIFERASE INFECTION ASSAY - IC50

compound | IC50 (µM)
Cc1ccc(C)c(Sc2ccc(NC(=O)CN3C(=O)NC(Cc4ccccc4)C3=O)cc2)c1 (stereo unspecified) | 5.94

###

System: Plasmodium berghei
Experiment: Luciferase/luciferin-expressing antifolate-resistant parasites were used to infect a culture of HepG2 cells that were pre-incubated with compounds. Infected hepatocytes emit light due to the luciferase reaction. Assay results are presented as the percent inhibition of light emission compared to control. […]
Format: functional
Details: sporozoite, HEPG2TOX_HILL_SLOPE 3.21, 5.75, HEPG2TOX_R_SQUARED 0.957, 0.718, PBLUC_HILL_SLOPE 33.6, 11.3, PBLUC_R_SQUARED 0.628, 0.512, read-out: LUCIFERASE INFECTION ASSAY - IC50
pIC50: −log10 of the molar value.

cpd smiles | pIC50
c1ccc(-c2csc3nc(CN4CCCCC4)nc(Sc4nnc(-c5cccnc5)o4)c23)cc1 | 5.49

###

Tested on: Plasmodium berghei
Assay: Luciferase/luciferin-expressing antifolate-resistant parasites were used to infect a culture of HepG2 cells that were pre-incubated with compounds. Infected hepatocytes emit light due to the luciferase reaction. Assay results are presented as the percent inhibition of light emission compared to control. […]
Type: functional
Settings: sporozoite, PBLUC_HILL_SLOPE 10.1, PBLUC_R_SQUARED 0.287, read-out: LUCIFERASE INFECTION ASSAY - IC50

cpd smiles | study system | IC50 (µM)
Cc1c(-n2c(SCn3nnc4ccccc4c3=O)nc3ccccc3c2=O)c(=O)n(-c2ccccc2)n1C | Plasmodium berghei | 9.23

###

Tested on: Plasmodium berghei
Assay: Luciferase/luciferin-expressing antifolate-resistant parasites were used to infect a culture of HepG2 cells that were pre-incubated with compounds. Infected hepatocytes emit light due to the luciferase reaction. Assay results are presented as the percent inhibition of light emission compared to control. […]
Type: functional
Conditions: sporozoite, HEPG2TOX_HILL_SLOPE 1.38, HEPG2TOX_R_SQUARED 0.978, PBLUC_HILL_SLOPE 0.881, PBLUC_R_SQUARED 0.443, read-out: LUCIFERASE INFECTION ASSAY - IC50
pIC50: −log10 of the molar value.
property measured: pIC50

cpd smiles | property measured | reported measurement
Cc1ccc2c(c1)CCCN2C(=O)CCc1nc(O)c2ccccc2n1 | pIC50 | 5.41

###

Tested on: Plasmodium berghei
Assay: Luciferase/luciferin-expressing antifolate-resistant parasites were used to infect a culture of HepG2 cells that were pre-incubated with compounds. Infected hepatocytes emit light due to the luciferase reaction. Assay results are presented as the percent inhibition of light emission compared to control. […]
Assay type: functional
Conditions: sporozoite, PBLUC_HILL_SLOPE 2.85, PBLUC_R_SQUARED 0.208, read-out: LUCIFERASE INFECTION ASSAY - IC50

compound | IC50, µM
OC1CCC(Nc2ccn3nc(-c4cccc(OCc5ccccc5)c4)cc3n2)CC1 (stereo unspecified) | 3.37

###

Tested on: Plasmodium berghei
Assay: Luciferase/luciferin-expressing antifolate-resistant parasites were used to infect a culture of HepG2 cells that were pre-incubated with compounds. Infected hepatocytes emit light due to the luciferase reaction. Assay results are presented as the percent inhibition of light emission compared to control. […]
Type: functional
Details: sporozoite, PBLUC_HILL_SLOPE 15.1, PBLUC_R_SQUARED 0.0385, read-out: LUCIFERASE INFECTION ASSAY - IC50
pIC50: −log10 of the molar value.

compound | study system | pIC50
CC(OC(=O)c1cc2sc3ccccc3c2s1)C(=O)N1CCNC1=O (stereo unspecified) | Plasmodium berghei | 5.07

###

System: Plasmodium berghei
Test: Luciferase/luciferin-expressing antifolate-resistant parasites were used to infect a culture of HepG2 cells that were pre-incubated with compounds. Infected hepatocytes emit light due to the luciferase reaction. Assay results are presented as the percent inhibition of light emission compared to control. […]
Type: functional
Settings: sporozoite, HEPG2TOX_HILL_SLOPE 0.224, HEPG2TOX_R_SQUARED 0.199, PBLUC_HILL_SLOPE 2.99, PBLUC_R_SQUARED 0.447, read-out: LUCIFERASE INFECTION ASSAY - IC50

cpd smiles | study system | IC50 [µM]
Cc1c(S(=O)(=O)c2ccc(Cl)cc2)csc1NC(=O)Nc1cc(C2CC2)n[nH]1 | Plasmodium berghei | 4.79

###

System: Plasmodium berghei
Test: Luciferase/luciferin-expressing antifolate-resistant parasites were used to infect a culture of HepG2 cells that were pre-incubated with compounds. Infected hepatocytes emit light due to the luciferase reaction. Assay results are presented as the percent inhibition of light emission compared to control. […]
Type: functional
Conditions: sporozoite, HEPG2TOX_HILL_SLOPE 1.63, HEPG2TOX_R_SQUARED 0.814, PBLUC_HILL_SLOPE 71.4, PBLUC_R_SQUARED 0.509, read-out: LUCIFERASE INFECTION ASSAY - IC50
pIC50: −log10 of the molar value.

compound | study system | pIC50
OC(/C(=N/Nc1ncnc2ccccc12)c1ccccc1)c1ccccc1 (stereo unspecified) | Plasmodium berghei | 5.23

###

Test system: Plasmodium berghei
Assay: Luciferase/luciferin-expressing antifolate-resistant parasites were used to infect a culture of HepG2 cells that were pre-incubated with compounds. Infected hepatocytes emit light due to the luciferase reaction. Assay results are presented as the percent inhibition of light emission compared to control. […]
Assay type: functional
Conditions: sporozoite, FFLUC_HILL_SLOPE 2.88, FFLUC_R_SQUARED 0.736, PBLUC_HILL_SLOPE 1.46, PBLUC_R_SQUARED 0.898, read-out: LUCIFERASE INFECTION ASSAY - IC50

cpd smiles | units of measure | IC50
Nc1c(C(=O)N2CCOCC2)sc2nc3c(cc12)CCCCC3 | nM | 93.9

###

System: Plasmodium berghei
Assay: Luciferase/luciferin-expressing antifolate-resistant parasites were used to infect a culture of HepG2 cells that were pre-incubated with compounds. Infected hepatocytes emit light due to the luciferase reaction. Assay results are presented as the percent inhibition of light emission compared to control. […]
Type: functional
Conditions: sporozoite, PBLUC_HILL_SLOPE 4.07, PBLUC_R_SQUARED 0.778, read-out: LUCIFERASE INFECTION ASSAY - IC50

cpd smiles | study system | IC50 [µM]
O=C1C(=O)N(Cc2ccncc2)c2ccccc21 | Plasmodium berghei | 8.1

###

System: Plasmodium berghei
Assay: Luciferase/luciferin-expressing antifolate-resistant parasites were used to infect a culture of HepG2 cells that were pre-incubated with compounds. Infected hepatocytes emit light due to the luciferase reaction. Assay results are presented as the percent inhibition of light emission compared to control. […]
Type: functional
Conditions: sporozoite, FFLUC_HILL_SLOPE 1.87, FFLUC_R_SQUARED 0.663, HEPG2TOX_HILL_SLOPE 0.372, HEPG2TOX_R_SQUARED 0.356, PBLUC_HILL_SLOPE 1.24, PBLUC_R_SQUARED 0.688, read-out: LUCIFERASE INFECTION ASSAY - IC50
property measured: IC50 (nM)

cpd smiles | property measured | reported measurement
Cc1nn(-c2ccccc2)c2sc(-c3[nH]nc(-c4ccccc4)c3-c3nc4ccccc4[nH]3)cc12 | IC50 | 1300
